Biological target: human muscarinic M2 receptor (Homo sapiens)
Construct: expressed in transfected cells
Sequence (P08172 1-466): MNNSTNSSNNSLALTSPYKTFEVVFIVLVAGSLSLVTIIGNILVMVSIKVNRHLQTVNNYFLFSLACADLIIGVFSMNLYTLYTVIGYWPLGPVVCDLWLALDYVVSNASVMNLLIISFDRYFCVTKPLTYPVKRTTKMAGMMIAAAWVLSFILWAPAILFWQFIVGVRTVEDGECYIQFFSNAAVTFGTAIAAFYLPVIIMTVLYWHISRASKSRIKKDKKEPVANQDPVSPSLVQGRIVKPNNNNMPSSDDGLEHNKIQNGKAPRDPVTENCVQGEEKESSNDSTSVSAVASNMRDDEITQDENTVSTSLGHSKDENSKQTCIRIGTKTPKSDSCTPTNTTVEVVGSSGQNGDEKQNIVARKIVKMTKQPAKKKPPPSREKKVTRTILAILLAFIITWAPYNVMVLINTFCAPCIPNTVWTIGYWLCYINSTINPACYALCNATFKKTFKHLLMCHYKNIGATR
Experiment: Alphascreen Surefire phospho-ERK1/2 functional assay, M2
Format: cell-based
Conditions: CHO, read-out: % Emax cf. ACh, M2
So I've got a bunch of compounds here, and I need their Emax values.
Numbers only, in %.

Past entries and their recorded results:
compound="CC#CCOC(=O)N1CCC2(CC(N3CCC(C(=O)NC4(C)CCC4)CC3)C2)C1 (mixture of isomers) [Example 10 - mixture of diastereomers]" data_value=10
compound="CCOC(=O)N1CC2(CCC(N3CCC(C(=O)NC4(C)CCC4)CC3)C2)C1 (racemic) [Example 12 - racemic]" data_value=8
compound="[2H]C([2H])([2H])COC(=O)N1CCC2(CC(N3CCC(C(=O)NC4(C)CCC4)CC3)C2)C1 (single isomer, unassigned) [Example 25 - Isomer 2]" data_value=23
compound="CCOC(=O)N1CCC2(CC(N3CCC(C(=O)NC4(C)CCC4)CC3)C2)C1 (mixture of isomers) [Example 9 - mixture of diastereomers]" data_value=6
compound="[2H]C([2H])([2H])C([2H])([2H])OC(=O)N1CCC2(CC(N3CCC(C(=O)NC4(C)CCC4)CC3)C2)C1 (single isomer, unassigned) [Example 29 - Isomer 2]" data_value=18

I would be grateful if you could provide Emax for each of the following entries.
1. CCOC(=O)N1CCC2(CC(N3CCC(F)(C(=O)NC4(C)CCC4)CC3)C2)C1 (mixture of isomers) [Example 11 - mixture of diastereomers]
2. CCOC(=O)N1CC2CC(N3CCC(C(=O)NC4(C)CCC4)CC3)CC2C1 (mixture of isomers) [Example 8 - mixture of diastereomers]
3. CCOC(=O)N1CCC2(CC(N3CCC(C(=O)NC4(C)CCC4)CC3)C2)C1 (single isomer, unassigned) [Example 9 - Isomer 2]

Result string:
1. 6
2. 5
3. 15

Query string: Form field - read-out: Emax; system: human muscarinic M2 receptor (Homo sapiens); submitted item: CCOC(=O)N1C2CCC1CC(N1CCC(C(=O)NC3(C)CCC3)CC1)C2 (single isomer, unassigned) [Example 1 - Isomer 2]
Result string: 0

* * *

Molecular target: human muscarinic M4 receptor (Homo sapiens, UniProt P08173)
Construct: expressed in transfected cells
Assay: Alphascreen Surefire phospho-ERK1/2 functional assay, M4
Type: cell-based
Conditions: CHO cells stably expressing human M4; phospho-ERK1/2; read-out: pEC50 M4 (converted)
So I've got a bunch of compounds here, and I need their EC50 values.
Answers are plain numbers, in nM.

I would be grateful if you could provide EC50 for each of the following entries.
1. CCOC(=O)N1CCC2(CC(N3CCC(C(=O)NCC4CCC4)CC3)C2)C1 (mixture of isomers) [Example 19 - mixture of diastereomers]
2. CCOC(=O)N1CC2(CCC(N3CCC(C(=O)NC4(C)CCC4)CC3)C2)C1 (racemic) [Example 12 - racemic]
3. [2H]C([2H])([2H])C1(NC(=O)C2CCN(C3CC4(CCN(C(=O)OCC)C4)C3)CC2)CCC1 (single isomer, unassigned) [Example 21 - Isomer 2]

Result string:
[1020, 53.7, 170]

* * *

Biological target: human muscarinic M2 receptor (Homo sapiens, UniProt P08172)
Construct: expressed in transfected cells
Experiment: Alphascreen Surefire phospho-ERK1/2 functional assay, M2
Format: cell-based
Details: CHO cells stably expressing human M2; phospho-ERK1/2; read-out: pEC50 M2 (converted)
Experimental: ERK1/2 phosphorylation is a downstream consequence of both Gq/11 and Gi/o protein coupled receptor activation, making it highly suitable for the assessment of M1, M3 (Gq/11 coupled) and M2, M4 receptors (Gi/o coupled), rather than using different assay formats for different receptor subtypes. […] Plates were incubated for 2 h with gentle agitation in the dark and then read on a PHERAstar plate reader. pEC50 and Emax figures were calculated from the resulting data for each receptor subtype.
So I've got a bunch of molecules here, and I need their EC50 values.

molecule="[2H]C([2H])([2H])C1(NC(=O)C2CCN(C3CC4(CCN(C(=O)OCC)C4)C3)CC2)CCC1 (single isomer, unassigned) [Example 21 - Isomer 2]" target_or_system="human muscarinic M2 receptor (Homo sapiens, UniProt P08172)" data_value="> 20 µM"

I would be grateful if you could provide EC50 for each of the following entries.
1. CCOC(=O)N1CCC2(CC(N3CCC(C(=O)NC4(C)CCC4)CC3)C2)C1 (mixture of isomers) [Example 9 - mixture of diastereomers]
2. CCOC(=O)N1C2CCC1CC(N1CCC(C(=O)NC3(C)CCC3)CC1)C2 (single isomer, unassigned) [Example 1 - Isomer 2]

Result string:
1: > 20 µM; 2: > 20 µM

* * *

Molecular target: human muscarinic M4 receptor (Homo sapiens, UniProt P08173)
Construct: expressed in transfected cells
Assay: Alphascreen Surefire phospho-ERK1/2 functional assay, M4
Type: cell-based
Conditions: CHO cells stably expressing human M4; phospho-ERK1/2; read-out: pEC50 M4 (converted)
ENDPOINT: EC50

compound="CCOC(=O)N1C2CCC1CC(N1CCC(C(=O)NC3(C)CCC3)CC1)C2 (single isomer, unassigned) [Example 1 - Isomer 2]" data_value="0.17 µM"
compound="CC#CCOC(=O)N1CCC2(CC(N3CCC(C(=O)NC4(C)CCC4)CC3)C2)C1 (mixture of isomers) [Example 10 - mixture of diastereomers]" data_value="0.339 µM"

Query string: Form field - read-out: EC50; system: human muscarinic M4 receptor (Homo sapiens, UniProt P08173); submitted item: CCOC(=O)N1CCC2(CC(N3CCC(C(=O)NC4(C)CCC4)CC3)C2)C1 (single isomer, unassigned) [Example 9 - Isomer 1]
Result string: 0.589 µM

* * *

Biological target: human muscarinic M4 receptor (Homo sapiens, UniProt P08173)
Construct: expressed in transfected cells
Sequence (P08173 1-479): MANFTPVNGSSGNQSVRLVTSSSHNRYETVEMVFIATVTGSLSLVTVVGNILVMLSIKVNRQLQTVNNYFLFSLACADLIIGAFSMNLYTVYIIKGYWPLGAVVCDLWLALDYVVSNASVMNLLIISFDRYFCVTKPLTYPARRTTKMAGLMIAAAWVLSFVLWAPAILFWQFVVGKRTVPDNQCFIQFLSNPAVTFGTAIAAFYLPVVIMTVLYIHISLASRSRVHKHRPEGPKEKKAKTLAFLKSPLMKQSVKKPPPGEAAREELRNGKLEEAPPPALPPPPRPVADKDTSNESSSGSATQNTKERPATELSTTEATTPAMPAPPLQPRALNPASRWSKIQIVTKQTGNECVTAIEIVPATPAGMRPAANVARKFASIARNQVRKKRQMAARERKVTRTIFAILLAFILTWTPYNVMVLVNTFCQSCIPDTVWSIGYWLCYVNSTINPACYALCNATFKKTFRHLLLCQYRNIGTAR
Assay: Alphascreen Surefire phospho-ERK1/2 functional assay, M4
Assay type: cell-based
Details: CHO, read-out: % Emax cf. ACh, M4
So I've got a bunch of compounds here, and I need their Emax values.
Answers are plain numbers, in %.

compound="CCOC(=O)N1CCC2(CC(N3CCC(F)(C(=O)NC4(C)CCC4)CC3)C2)C1 (mixture of isomers) [Example 11 - mixture of diastereomers]" unit_spec=% data_value=77
compound="CC#CCOC(=O)N1CCC2(CC(N3CCC(C(=O)NC4(C)CCC4)CC3)C2)C1 (mixture of isomers) [Example 10 - mixture of diastereomers]" unit_spec=% data_value=42

Query string: Reported Emax for CCOC(=O)N1CCC2(CC(N3CCC(C(=O)NC4(C)CCC4)CC3)C2)C1 (single isomer, unassigned) [Example 9 - Isomer 1] : what is it?
Result string: 67

* * *

Target: human muscarinic M4 receptor (Homo sapiens, UniProt P08173)
Construct: expressed in transfected cells
Test: Alphascreen Surefire phospho-ERK1/2 functional assay, M4
Format: cell-based
Details: CHO, read-out: % Emax cf. ACh, M4
Description: ERK1/2 phosphorylation is a downstream consequence of both Gq/11 and Gi/o protein coupled receptor activation, making it highly suitable for the assessment of M1, M3 (Gq/11 coupled) and M2, M4 receptors (Gi/o coupled), rather than using different assay formats for different receptor subtypes. […] Plates were incubated for 2 h with gentle agitation in the dark and then read on a PHERAstar plate reader. pEC50 and Emax figures were calculated from the resulting data for each receptor subtype.
Outcome label depends on Emax relative to 70%: at/above gives Fulfilled, below gives Not fulfilled.

compound="C#CCOC(=O)N1CC2(CCC(N3CCC(C(=O)NC4(C)CCC4)CC3)C2)C1 (racemic) [Example 13 - racemic]" assigned_label="Not fulfilled"
compound="[2H]C([2H])([2H])C1(NC(=O)C2CCN(C3CC4(CCN(C(=O)OCC)C4)C3)CC2)CCC1 (single isomer, unassigned) [Example 21 - Isomer 2]" assigned_label=Fulfilled
compound="[2H]C([2H])([2H])C([2H])([2H])OC(=O)N1CCC2(CC(N3CCC(C(=O)NC4(C([2H])([2H])[2H])C([2H])([2H])C([2H])([2H])C4([2H])[2H])CC3)C2)C1 (mixture of isomers) [Example 31 - mixture of diastereomers]" assigned_label=Fulfilled
compound="CCOC(=O)N1CC2CC(N3CCC(C(=O)NC4(C)CCC4)CC3)CC1C2 (mixture of isomers) [Example 7 - mixture of diastereomers]" assigned_label=Fulfilled
compound="CCOC(=O)N1CCC2(CC(N3CCC(C(=O)NC4(CF)CCC4)CC3)C2)C1 (single isomer, unassigned) [Example 23 - Isomer 2]" assigned_label="Not fulfilled"

Query string: hey, is Emax for this one >= 70%? CCOC(=O)N1CCC2(CC(N3CCC(C(=O)NC(C)(C)CC)CC3)C2)C1 (mixture of isomers) [Example 16 - mixture of diastereomers]
Result string: Not fulfilled

Query string: hey, is Emax for this one >= 70%? [2H]C([2H])([2H])COC(=O)N1CCC2(CC(N3CCC(C(=O)NC4(CF)CCC4)CC3)C2)C1 (single isomer, unassigned) [Example 28 - Isomer 2]
Result string: Fulfilled
